Ref: ChEMBL document CHEMBL1139495

In this section we review reported pIC50 values for a set of compounds.
assayed-target: Calpain-1 catalytic subunit (Homo sapiens, UniProt P07384)
Sequence (P07384 whole entry): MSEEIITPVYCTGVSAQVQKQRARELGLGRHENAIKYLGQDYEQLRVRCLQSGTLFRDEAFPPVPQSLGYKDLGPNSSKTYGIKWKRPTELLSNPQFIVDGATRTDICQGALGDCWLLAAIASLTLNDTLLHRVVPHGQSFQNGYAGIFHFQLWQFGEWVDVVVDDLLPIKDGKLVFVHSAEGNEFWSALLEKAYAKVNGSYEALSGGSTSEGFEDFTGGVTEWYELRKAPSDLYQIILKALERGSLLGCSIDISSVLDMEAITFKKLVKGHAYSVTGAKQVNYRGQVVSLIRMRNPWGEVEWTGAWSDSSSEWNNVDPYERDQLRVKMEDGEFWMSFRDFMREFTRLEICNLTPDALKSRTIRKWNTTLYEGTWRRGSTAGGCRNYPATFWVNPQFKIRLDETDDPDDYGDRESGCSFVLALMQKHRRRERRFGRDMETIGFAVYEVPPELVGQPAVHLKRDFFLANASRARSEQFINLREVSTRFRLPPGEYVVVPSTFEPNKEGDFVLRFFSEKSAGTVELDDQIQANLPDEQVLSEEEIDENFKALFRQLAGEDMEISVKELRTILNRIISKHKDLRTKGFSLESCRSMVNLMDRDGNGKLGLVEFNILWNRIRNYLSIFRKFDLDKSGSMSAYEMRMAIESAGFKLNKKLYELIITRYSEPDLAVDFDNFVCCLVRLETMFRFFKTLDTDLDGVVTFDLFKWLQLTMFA
method-description: Inhibitory concentration against Calpain I activity
pIC50: −log10 of the molar value. Where a SMILES comes first, the peptide text is derived from it. [ ]: non-standard residue; d: D form. Nle = CCCC[C@H](N)C(=O)O

Solved cases below.
INSERT INTO results (compound, reported_result) VALUES
  ('CC(C)CN(CC(=O)N(CC(C)C)NC(=O)OCc1ccccc1)/N=C/c1ccccc1B(O)O', '< 3.00'),
  ('CC(C)CN(NC(=O)OCc1ccccc1)C(=O)CN(Cc1ccccc1)/N=C/c1cccc(B(O)O)c1', '< 3.00');

Pending compound:
Task: What value of pIC50 has been recorded for this entry: CCCC[C@@H](C=O)NC(=O)[C@H](CC(C)C)NC(=O)[C@H](CC(C)C)NC(C)=O (Ac-Leu-Leu-[Nle]-aldehyde)
Result: 6.00
